Ref: PubChem BioAssay AID1159580

Experiment: chemical genetic growth profiling, strain panel (AID 1159580);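 also: tested at 20 µM; growth read once vehicle control cultures reached saturation at 30 °C; 1 = growth at the plate median or of vehicle wells; lower values mean less growth of the strain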
Conditions: S. cerevisiae deletion strains, growth OD, locus YLR268W, strain sec22, hits give low values
The whole screen tested about 5,500 compounds, of which about 2,000 (36%) were called active. Roughly 18% stayed inconclusive and do not appear here. Some of the results follow.
Field: label. Allowed values: class 1 (normalized growth < 1) or class 0 (normalized growth >= 1).

- MOLECULE: "CC(=O)Nc1ccc(OC(=O)c2ccccc2O)cc1"
  LABEL_VALUE: "class 1"
- MOLECULE: "CC1=NCCc2c1[nH]c1cc(O)ccc21"
  LABEL_VALUE: "class 0"

*Q* Please indicate whether the reported normalized growth of "CC(C)(Oc1ccc(Cl)cc1)C(=O)O" is strictly below 1.
*A* class 1

*Q* Please indicate whether the reported normalized growth of "CCCCCCCCCCCCCCCC[n+]1ccccc1" is strictly below 1.
*A* class 1

*Q* Please indicate whether the reported normalized growth of "COc1ccc(-c2cc(=O)c3c(OC(C)=O)cc(OC(C)=O)cc3o2)cc1" is strictly below 1.
*A* class 1
